// reported IC50 per item
target: cSrc (Homo sapiens (Human), UniProt P12931)
Sequence (P12931 whole entry, looked up): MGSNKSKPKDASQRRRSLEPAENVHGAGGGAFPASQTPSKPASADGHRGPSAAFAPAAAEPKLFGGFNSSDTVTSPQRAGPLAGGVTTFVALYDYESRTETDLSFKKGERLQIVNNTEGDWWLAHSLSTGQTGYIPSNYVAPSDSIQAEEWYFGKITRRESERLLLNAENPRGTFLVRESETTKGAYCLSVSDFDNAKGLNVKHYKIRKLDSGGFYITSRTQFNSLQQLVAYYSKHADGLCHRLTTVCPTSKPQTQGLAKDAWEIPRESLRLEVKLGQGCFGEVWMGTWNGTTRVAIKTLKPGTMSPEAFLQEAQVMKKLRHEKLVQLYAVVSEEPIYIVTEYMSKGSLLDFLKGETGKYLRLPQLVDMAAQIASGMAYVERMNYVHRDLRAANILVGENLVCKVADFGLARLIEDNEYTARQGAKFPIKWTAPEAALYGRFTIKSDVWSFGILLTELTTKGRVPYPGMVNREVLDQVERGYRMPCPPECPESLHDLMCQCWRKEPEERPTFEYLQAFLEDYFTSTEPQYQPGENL
RECORDED METRIC: IC50 (nM)

1) COc1ccc(-n2nc(C(C)(C)C)cc2NC(=O)Nc2ccc(Oc3ccnc(Nc4ccc5[nH]nc(OCCN6CCOCC6)c5c4)n3)c3ccccc23)cc1	5
2) COc1ccc(-n2nc(C(C)(C)C)cc2NC(=O)Nc2ccc(Oc3ccnc(Nc4ccc5[nH]ncc5c4)n3)c3ccccc23)cc1	8
3) CC(C)(C)c1cc(NC(=O)Nc2ccc(Oc3ccnc(Nc4ccc5[nH]ncc5c4)c3)c3ccccc23)n(-c2cccc(OCCN3CCOCC3)c2)n1	3
4) COc1ccc(-n2nc(C(C)(C)C)cc2NC(=O)Nc2ccc(Oc3ccnc(Nc4ccc5[nH]nc(C(=O)N6CCOCC6)c5c4)n3)c3ccccc23)cn1	107
5) Cc1cc(Nc2nccc(Oc3ccc(NC(=O)Nc4cc(C(C)(C)C)nn4-c4cccc(OCCN5CCOCC5)c4)c4ccccc34)n2)cc2cn[nH]c12	2
6) Cc1cc(Nc2nccc(Oc3ccc(NC(=O)Nc4cc(C(C)(C)C)nn4-c4ccc(=O)n(CCO)c4)c4ccccc34)n2)cc2cn[nH]c12	2
7) Cc1ccc(-n2nc(C(C)(C)C)cc2NC(=O)Nc2ccc(Oc3ccnc(Nc4ccc5[nH]ncc5c4)n3)c3ccccc23)cc1	19
8) Cc1ccc(-n2nc(C(C)(C)C)cc2NC(=O)Nc2ccc(Oc3ccnc(Nc4cccc5cc[nH]c45)n3)c3ccccc23)cc1	138
9) Cc1ccc(-n2nc(C(C)(C)C)cc2NC(=O)Nc2ccc(Oc3ccnc(Nc4ccc5[nH]nc(C(=O)NCCN6CCOCC6)c5c4)n3)c3ccccc23)cc1	6
10) Cc1cc(Nc2nccc(Oc3ccc(NC(=O)Nc4cc(C(C)(C)C)nn4-c4ccc(OCCN5CCOCC5)nc4)c4ccccc34)n2)cc2cn[nH]c12	1
11) CC(C)(C)c1cc(NC(=O)Nc2ccc(Oc3ccnc(Nc4ccc5[nH]ncc5c4)n3)c3ccccc23)n(-c2ccc(OCCN3CCOCC3)cc2)n1	13
12) Cc1ccc(-n2nc(C(C)(C)C)cc2NC(=O)Nc2ccc(Oc3ccnc(Nc4ccc5cn[nH]c5c4)n3)c3ccccc23)cc1	102
13) Cc1ccc(-n2nc(C(C)(C)C)cc2NC(=O)Nc2ccc(Oc3ccnc(Nc4cc(C)c5[nH]ncc5c4)n3)c3ccccc23)cc1	11

The reported numbers originate from patent US9249125B2.
